The reported numbers originate from patent US20260049134A1.

Molecular target: T1, IGSF11 (VSIG3)
T1 construct: coated protein in the ELISA; also called IGSF11-Fc (R&D Systems)
T1 chain: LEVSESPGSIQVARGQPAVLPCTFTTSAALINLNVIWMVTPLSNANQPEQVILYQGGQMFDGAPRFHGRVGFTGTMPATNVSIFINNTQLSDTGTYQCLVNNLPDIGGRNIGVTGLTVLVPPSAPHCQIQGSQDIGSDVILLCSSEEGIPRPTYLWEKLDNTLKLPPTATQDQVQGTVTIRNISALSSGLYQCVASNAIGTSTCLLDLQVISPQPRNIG
Experiment: ELISA on coated IGSF11-Fc, 150 ng IgG1; None 0.090
Decision: ELISA Absorbance (405 nm-570 nm) >= 0.09 yields Yes, all other cases yield No.

Record excerpt, results attached:
Binder	Classification
HW-1 chimeric rabbit-human IgG1 LA/LA/PG (antibody, V domains shown, Fc-silenced (L234A/L235A/P329G) IgG1, lambda; Alexa Fluor 647-labeled in single-step flow cytometry; Prototype of cluster C-1) VH: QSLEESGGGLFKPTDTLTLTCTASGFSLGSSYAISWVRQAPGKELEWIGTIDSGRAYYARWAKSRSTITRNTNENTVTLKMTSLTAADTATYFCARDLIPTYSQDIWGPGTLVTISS VL: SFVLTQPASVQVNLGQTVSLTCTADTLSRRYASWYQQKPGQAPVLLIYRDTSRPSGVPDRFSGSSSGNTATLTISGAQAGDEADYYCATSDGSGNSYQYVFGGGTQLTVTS	No
HW-28 chimeric rabbit-human IgG1 LA/LA/PG (antibody, V domains shown, Fc-silenced (L234A/L235A/P329G) IgG1, lambda; Alexa Fluor 647-labeled in single-step flow cytometry; Cluster C-45) VH: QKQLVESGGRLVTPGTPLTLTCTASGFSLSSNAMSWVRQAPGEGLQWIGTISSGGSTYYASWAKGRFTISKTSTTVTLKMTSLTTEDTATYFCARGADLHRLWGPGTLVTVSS VL: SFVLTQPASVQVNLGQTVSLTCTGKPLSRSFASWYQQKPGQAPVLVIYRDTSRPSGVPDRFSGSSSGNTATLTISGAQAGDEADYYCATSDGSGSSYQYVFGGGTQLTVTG	Yes
HW-70 chimeric rabbit-human IgG1 LA/LA/PG (antibody, V domains shown, Fc-silenced (L234A/L235A/P329G) IgG1, lambda; Alexa Fluor 647-labeled in single-step flow cytometry; Cluster C-1) VH: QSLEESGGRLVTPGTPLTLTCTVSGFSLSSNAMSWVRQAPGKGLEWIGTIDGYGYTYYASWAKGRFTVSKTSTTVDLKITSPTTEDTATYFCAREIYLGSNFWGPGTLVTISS VL: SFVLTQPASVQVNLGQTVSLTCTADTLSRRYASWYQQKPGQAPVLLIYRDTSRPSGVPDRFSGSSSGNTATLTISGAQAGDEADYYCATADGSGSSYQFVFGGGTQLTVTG	No
TH9-0022 (antibody, human IgG1, kappa, L234A L235A, V domains shown, also called TH9-022; negative control) VH: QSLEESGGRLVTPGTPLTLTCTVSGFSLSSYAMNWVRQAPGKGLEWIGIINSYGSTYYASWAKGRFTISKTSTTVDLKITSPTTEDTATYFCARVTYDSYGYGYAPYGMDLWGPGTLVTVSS VL: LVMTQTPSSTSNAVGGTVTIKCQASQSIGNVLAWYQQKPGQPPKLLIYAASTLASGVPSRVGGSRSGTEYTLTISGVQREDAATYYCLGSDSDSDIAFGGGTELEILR	No

Here is another binder to look at.
Exam item: decide whether the reported ELISA Absorbance (405 nm-570 nm) for HW-8 chimeric rabbit-human IgG1 LA/LA/PG (antibody, V domains shown, Fc-silenced (L234A/L235A/P329G) IgG1, kappa; Alexa Fluor 647-labeled in single-step flow cytometry; Cluster C-45) VH: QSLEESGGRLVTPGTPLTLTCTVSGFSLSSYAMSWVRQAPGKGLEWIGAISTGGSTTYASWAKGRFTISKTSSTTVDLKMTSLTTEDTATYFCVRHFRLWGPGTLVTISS VL: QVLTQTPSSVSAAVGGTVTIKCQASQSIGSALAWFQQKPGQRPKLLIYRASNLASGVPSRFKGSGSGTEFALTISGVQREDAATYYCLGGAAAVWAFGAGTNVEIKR is at least 0.09.
Marked response: No
